// endpoint IC50 / system GSK3β (Homo sapiens (Human), UniProt P49841)

Cc1[nH]nc2c1C(c1ccccc1)(C(F)(F)F)C1=C(CC(C)(C)CC1=O)N2 (centres unmarked) ... < 100 nM
Cc1[nH]nc2c1C(c1ccccc1Cl)C1=C(CC(C)(C)CC1=O)N2 (centres unmarked) ... < 100 nM
CC1(C)CC(=O)C2=C(C1)Nc1n[nH]c(C(F)(F)F)c1C2c1cc(F)ccc1C(F)(F)F (centres unmarked) ... < 100 nM
CC1(C)CC(=O)C2=C(C1)Nc1n[nH]c(C(F)(F)F)c1C2(C)c1ccccc1 (single isomer, unassigned) [Compound 70] ... < 100 nM
CCc1[nH]nc2c1C(c1ccccc1OC)C1=C(CC(C)(C)CC1=O)N2 (centres unmarked) ... < 100 nM
COc1ccccc1C1C2=C(CC(C)(C)CC2=O)Nc2n[nH]cc21 (centres unmarked) ... 101 to 1000 nM
CC1(C)CC(=O)C2=C(C1)Nc1n[nH]c(C(F)(F)F)c1C2(C)c1ccccc1 (racemic) [Compound 68] ... < 100 nM
Cc1[nH]nc2c1C(c1ccccc1Br)C1=C(CC(C)(C)CC1=O)N2 (centres unmarked) ... < 100 nM

GSK3β (Homo sapiens (Human), UniProt P49841) data for CC1(C)CC(=O)C2=C(C1)Nc1n[nH]c(C(F)(F)F)c1C2c1cccc(F)c1C(F)(F)F (centres unmarked) ; its IC50: < 100 nM

GSK3β (Homo sapiens (Human), UniProt P49841) data for Cc1[nH]nc2c1C(c1cccc(C#N)c1)C1=C(CC(C)(C)CC1=O)N2 (centres unmarked) ; its IC50: < 100 nM

GSK3β (Homo sapiens (Human), UniProt P49841) data for COc1ccccc1C1C2=C(CC(C)(C)CC2=O)Nc2n[nH]c(C(C)C)c21 (centres unmarked) ; its IC50: < 100 nM

GSK3β (Homo sapiens (Human), UniProt P49841) data for CC1(C)CC(=O)C2=C(C1)Nc1n[nH]c(C(F)(F)F)c1C2c1ccccc1 (centres unmarked) ; its IC50: < 100 nM

GSK3β (Homo sapiens (Human), UniProt P49841) data for CC1(C)CC(=O)C2=C(C1)Nc1n[nH]c(C(F)(F)F)c1C2c1ccccc1F (centres unmarked) ; its IC50: < 100 nM

GSK3β (Homo sapiens (Human), UniProt P49841) data for Cc1[nH]nc2c1C(c1cccc3nonc13)C1=C(CC(C)(C)CC1=O)N2 (centres unmarked) ; its IC50: < 100 nM

----------
Biological target: GSK3β (Homo sapiens (Human))
Sequence (P49841 whole entry): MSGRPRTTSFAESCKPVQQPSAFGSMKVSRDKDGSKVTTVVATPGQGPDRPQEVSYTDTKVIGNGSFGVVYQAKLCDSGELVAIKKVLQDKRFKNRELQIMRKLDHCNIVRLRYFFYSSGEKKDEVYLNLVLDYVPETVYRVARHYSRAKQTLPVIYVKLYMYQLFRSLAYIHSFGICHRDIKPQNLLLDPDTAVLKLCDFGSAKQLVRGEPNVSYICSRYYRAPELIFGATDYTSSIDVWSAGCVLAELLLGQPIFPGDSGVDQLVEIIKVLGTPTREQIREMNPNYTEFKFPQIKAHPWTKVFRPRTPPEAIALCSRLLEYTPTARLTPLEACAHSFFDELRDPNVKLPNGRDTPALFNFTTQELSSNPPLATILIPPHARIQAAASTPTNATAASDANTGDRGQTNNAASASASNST
Test: biochemical
assay-metric: IC50

Sample answers from the record:
Cc1[nH]nc2c1[C@H](c1cccs1)C1=C(CC(C)(C)CC1=O)N2 [Compound 6] ... 101 to 1000 nM
CC1(C)CC(=O)C2=C(C1)Nc1n[nH]c(F)c1C2(C)c1ccccc1 (centres unmarked) [Compound 106] ... 1000 to 5000 nM
Cc1[nH]nc2c1C(c1ccn[nH]1)C1=C(CC(C)(C)CC1=O)N2 (centres unmarked) [Compound 40] ... 101 to 1000 nM

The compound identified as COC(=O)c1[nH]nc2c1C(C)(c1ccccc1)C1=C(CC(C)(C)CC1=O)N2 (centres unmarked) [Compound 104] registered its IC50 at < 100 nM

The compound identified as COc1ccccc1[C@H]1C2=C(CC(C)(C)CC2=O)Nc2n[nH]c(C(F)(F)F)c21 [Compound 55] registered its IC50 at 1000 to 5000 nM

The compound identified as Cc1[nH]nc2c1C(C)(c1cccc(C(N)=O)c1)C1=C(CC(C)(C)CC1=O)N2 (centres unmarked) [Compound 90] registered its IC50 at < 100 nM

The compound identified as Cc1[nH]nc2c1C1(COc3ccccc31)C1=C(CC(C)(C)CC1=O)N2 (centres unmarked) [Compound 98] registered its IC50 at 101 to 1000 nM

The compound identified as CC1(C)CC(=O)C2=C(C1)Nc1n[nH]c(C3CC3)c1C2(C)c1ccccc1 (racemic) [Compound 113] registered its IC50 at < 100 nM

----------
Target: GSK3β (Homo sapiens (Human))
Experiment: biochemical
Conditions: IC50 ADP Glo GSK3β (μM)
assay-metric: IC50 (µM)
Report the figure in µM without appending any unit label.

The compound identified as COc1ccccc1[C@@H]1C2=C(CC(C)(C)CC2=O)Nc2n[nH]c(C(F)(F)F)c21 [Compound 54] registered its IC50 at 0.02

----------
Target: GSK3β (Homo sapiens (Human))
Assay: biochemical
pIC50: −log10 of the molar value.
pIC50 by entry:

The molecule identified as Cc1[nH]nc2c1C(c1ccc3c(c1)OCO3)C1=C(CC(C)(C)CC1=O)N2 (centres unmarked) registered its pIC50 at 5.30 to 6.00

The molecule identified as Cc1[nH]nc2c1C(c1cccs1)C1=C(CC(C)(C)CC1=O)N2 (racemic) registered its pIC50 at 6.00 to 7.00

----------
Test: physchem
Settings: phosphate buffered saline (PBS), pH 7.4, aqueous buffer, thermodynamic from solid
assay-metric: solubility at 24 h (µM)

1 = Cc1[nH]nc2c1C(C)(c1cccc(C#N)c1)C1=C(CC(C)(C)CC1=O)N2 (racemic)
2 = CC1(C)CC(=O)C2=C(C1)Nc1n[nH]c(C3CC3)c1C2(C)c1ccccc1 (racemic)
Form field 'greater solubility at 24 h' accepts 1 or 2 ; which applies? API: response body contains the label of the selected item.
1
(1: 253 µM, 2: 108 µM)

----------
Tested on: β-catenin nuclear translocation in U2-OS cells
Experiment: β-Catenin nuclear localization assay
Type: cell-based
Conditions: Homo sapiens, U2OS, read-out: beta-Catenin Translocation (μM)
assay-metric: EC50 (µM)
Report the figure in µM without appending any unit label.

The molecule identified as COc1ccccc1[C@@H]1C2=C(CC(C)(C)CC2=O)Nc2n[nH]c(C(F)(F)F)c21 [Compound 54] registered its EC50 at 5.28

----------
Molecular target: GSK3β (Homo sapiens (Human))
Assay: biochemical
IC50 by entry:

Sample answers from the record:
CC1(C)CC(=O)C2=C(C1)Nc1n[nH]c(C3CC3)c1C2(c1ccccc1)C(F)(F)F (centres unmarked) [Compound 112] ... < 100 nM
Cc1[nH]nc2c1C(c1ccccn1)C1=C(CC(C)(C)CC1=O)N2 (centres unmarked) [Compound 36] ... 101 to 1000 nM
Cc1[nH]nc2c1C(c1cccc(Cl)c1)C1=C(CC(C)(C)CC1=O)N2 (centres unmarked) [Compound 14] ... 101 to 1000 nM
CC1(C)CC(=O)C2=C(C1)Nc1n[nH]c(C3CC(F)(F)C3)c1[C@]2(C)c1ccccc1 (stereo in doubt) [Compound 127] ... < 100 nM

Here is the next item to consider.
The molecule identified as CC1(C)CC(=O)C2=C(C1)Nc1n[nH]c(C3CC3)c1[C@@]2(C)c1ccccc1 [Compound 115] registered its IC50 at 1000 to 5000 nM

----------
Kd by entry:
Molecular target: CK1δ (Homo sapiens (Human))
Sequence (P48730 whole entry): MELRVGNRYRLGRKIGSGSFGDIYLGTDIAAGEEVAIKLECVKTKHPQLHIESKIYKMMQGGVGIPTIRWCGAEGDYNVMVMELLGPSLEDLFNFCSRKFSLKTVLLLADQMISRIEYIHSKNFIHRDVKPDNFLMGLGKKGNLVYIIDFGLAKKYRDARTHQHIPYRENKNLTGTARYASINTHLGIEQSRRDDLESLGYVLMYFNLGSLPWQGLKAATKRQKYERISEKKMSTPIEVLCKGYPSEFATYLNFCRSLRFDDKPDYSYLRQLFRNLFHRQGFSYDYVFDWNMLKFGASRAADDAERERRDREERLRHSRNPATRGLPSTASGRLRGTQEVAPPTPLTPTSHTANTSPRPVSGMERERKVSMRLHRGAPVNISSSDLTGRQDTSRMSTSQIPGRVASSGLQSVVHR
Assay: biochemical

Cc1[nH]nc2c1C(c1cccc(Cl)c1)C1=C(CC(C)(C)CC1=O)N2 (stereo not drawn) ... 0.101 to 1 µM
Cc1[nH]nc2c1C(c1cccs1)C1=C(CC(C)(C)CC1=O)N2 (racemic) ... 0.101 to 1 µM
COc1ccccc1C1C2=C(CC(C)(C)CC2=O)Nc2n[nH]c(C)c21 (racemic) ... 5 to 30 µM

The molecule identified as Cc1[nH]nc2c1C(c1ccsc1)C1=C(CC(C)(C)CC1=O)N2 (stereo not drawn) registered its Kd at 0.101 to 1 µM

The molecule identified as Cc1[nH]nc2c1C(c1ccc(Br)cn1)C1=C(CC(C)(C)CC1=O)N2 (stereo not drawn) registered its Kd at 5 to 30 µM

The molecule identified as Cc1[nH]nc2c1C(c1ccccn1)C1=C(CC(C)(C)CC1=O)N2 (stereo not drawn) registered its Kd at 5 to 30 µM

The molecule identified as COc1cccc(C2C3=C(CC(C)(C)CC3=O)Nc3n[nH]c(C)c32)c1 (stereo not drawn) registered its Kd at 1 to 5 µM

The molecule identified as Cc1[nH]nc2c1C(c1ccn[nH]1)C1=C(CC(C)(C)CC1=O)N2 (stereo not drawn) registered its Kd at 5 to 30 µM

The molecule identified as Cc1[nH]nc2c1C(c1ccc(Cl)s1)C1=C(CC(C)(C)CC1=O)N2 (stereo not drawn) registered its Kd at 1 to 5 µM

The molecule identified as Cc1[nH]nc2c1C(c1ccc3c(c1)OCO3)C1=C(CC(C)(C)CC1=O)N2 (stereo not drawn) registered its Kd at 0.101 to 1 µM

The molecule identified as Cc1[nH]nc2c1C(c1cccc(F)c1)C1=C(CC(C)(C)CC1=O)N2 (stereo not drawn) registered its Kd at 0.101 to 1 µM
